- assayed.target: plastidic AtPGI (PGI1) (Arabidopsis thaliana, UniProt Q8H103)
- Construct: N-terminal His-tag, plastid targeting peptide removed, pET11a, E. coli BL21, Ni-NTA purified
- Sequence (Q8H103 49-613): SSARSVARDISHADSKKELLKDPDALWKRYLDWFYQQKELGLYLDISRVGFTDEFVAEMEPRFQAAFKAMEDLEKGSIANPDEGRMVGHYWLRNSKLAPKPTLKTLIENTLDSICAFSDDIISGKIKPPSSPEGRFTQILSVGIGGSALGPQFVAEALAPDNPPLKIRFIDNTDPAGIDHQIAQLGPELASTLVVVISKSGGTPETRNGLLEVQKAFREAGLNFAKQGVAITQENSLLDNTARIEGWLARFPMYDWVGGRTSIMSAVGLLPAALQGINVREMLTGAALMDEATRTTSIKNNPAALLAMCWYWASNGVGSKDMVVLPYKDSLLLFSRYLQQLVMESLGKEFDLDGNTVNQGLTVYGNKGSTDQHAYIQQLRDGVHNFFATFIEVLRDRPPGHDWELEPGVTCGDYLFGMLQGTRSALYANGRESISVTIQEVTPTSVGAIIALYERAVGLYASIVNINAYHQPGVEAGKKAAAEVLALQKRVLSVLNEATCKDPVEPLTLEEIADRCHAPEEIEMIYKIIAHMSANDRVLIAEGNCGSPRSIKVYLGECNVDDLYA
- assay.overview: G6PDH-coupled spectrophotometric assay, non-linear least squares fit
- Format: biochemical
- condition.info: F6P to G6P direction, F6P 0-0.98 mM; 50 mM bicine pH 7.8, 4.8 mM DTT, 0.6 mM NADP+; competitive with F6P except above 1.0 mM; read-out: F6P G6P / Plastidic PGI
attribute.measured: Ki
Quote the value and follow it with the unit of measurement.

I'd like to know its Ki. The compound in question is O=C(O)[C@H](O)[C@@H](O)[C@H](O)[C@H](O)COP(=O)(O)O [6PG, 6-phosphogluconate]
31 µM

---

- assayed.target: plastidic AtPGI (PGI1) (Arabidopsis thaliana)
- Construct: N-terminal His-tag, plastid targeting peptide removed, pET11a, E. coli BL21, Ni-NTA purified
- assay.overview: G6PDH-coupled spectrophotometric assay, non-linear least squares fit
- Assay type: biochemical
- condition.info: F6P to G6P direction, F6P 0-0.98 mM; 50 mM bicine pH 7.8, 4.8 mM DTT, 0.6 mM NADP+; read-out: F6P G6P / Plastidic PGI
attribute.measured: Ki (nM)
Provide only the numeric value, understood in nM.

I'd like to know its Ki. The compound in question is O=C[C@H](O)[C@H](O)COP(=O)(O)O [E4P, erythrose 4-phosphate]
2300

---

- assayed.target: cytosolic AtPGI (PGI2) (Arabidopsis thaliana)
- Construct: gene PGIC; N-terminal His-tag, pET11a, E. coli BL21, Ni-NTA purified
- Sequence (P34795 1-560): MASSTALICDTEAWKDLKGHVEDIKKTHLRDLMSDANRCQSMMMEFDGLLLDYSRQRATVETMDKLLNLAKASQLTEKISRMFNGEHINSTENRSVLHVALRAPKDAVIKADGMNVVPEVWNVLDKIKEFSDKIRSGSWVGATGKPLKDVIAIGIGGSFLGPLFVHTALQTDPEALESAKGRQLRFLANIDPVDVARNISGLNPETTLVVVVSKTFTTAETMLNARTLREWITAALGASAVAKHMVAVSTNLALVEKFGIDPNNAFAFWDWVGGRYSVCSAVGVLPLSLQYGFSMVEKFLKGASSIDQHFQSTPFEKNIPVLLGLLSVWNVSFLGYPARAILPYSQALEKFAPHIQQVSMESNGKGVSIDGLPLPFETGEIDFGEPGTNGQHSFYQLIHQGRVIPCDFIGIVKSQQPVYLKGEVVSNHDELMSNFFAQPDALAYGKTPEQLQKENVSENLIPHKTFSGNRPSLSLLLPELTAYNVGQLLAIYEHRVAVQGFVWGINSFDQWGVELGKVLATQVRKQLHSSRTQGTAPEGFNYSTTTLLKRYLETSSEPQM
- assay.overview: G6PDH-coupled spectrophotometric assay, non-linear least squares fit
- Format: biochemical
- condition.info: F6P to G6P direction, F6P 0-0.98 mM; 50 mM bicine pH 7.8, 4.8 mM DTT, 0.6 mM NADP+; read-out: F6P G6P / Cytosolic PGI
attribute.measured: Ki
Quote the value and follow it with the unit of measurement.

I'd like to know its Ki. The molecule in question is O=C[C@H](O)[C@H](O)COP(=O)(O)O [E4P, erythrose 4-phosphate]
1500 nM

These entries and their values trace back to paper PMC7758399.
